Listed next: entries and their corresponding Change.
# Tested on: Cricetinae gen. sp.
# assayProcedure: In vivo effect on serum cholesterol level of cholesterol-fed hamsters at a dose of 50(mpk)
# Format: functional
experimentalEndpoint: Change (%)

                                   compound  experimentalendpoint  numericvalue
0  O=C(NC(Cc1ccccc1)c1ccccc1)C(c1ccccc1)c1ccccc1 (centres undefined)                Change             0
1  Nc1ccc(CC(NC(=O)C(c2ccccc2)c2ccccc2)c2ccccc2)cc1 (racemic)                Change           -13
2  CCCCCCCCCCC(C)(C)C(=O)Nc1c(OC)cc(OC)cc1OC                Change           -10
3  CCCCCCCN(Cc1ccc(CC(C)(C)C)cc1)C(=O)Nc1ccc(F)cc1F                Change           -29

====

# Tested on: Cricetinae gen. sp.
# assayProcedure: In vivo effect on cholesteryl esters level of cholesterol-fed hamsters at a dose of 50 mg/kg per oral
# Format: functional
Catalogue of compounds with associated Change
experimentalEndpoint: Change (%)

In [3]: df
Out[3]:
                                    compound  numericvalue
 0  CCCCCCCn1ccnc1CC(NC(=O)C(c1ccccc1)c1ccccc1)c1ccccc1 (stereo not given)             0
 1  COc1ccc(CC(NC(=O)C(c2ccccc2)c2ccccc2)c2ccccc2)cc1 (stereo not given)           -65
 2  O=C(NC(Cc1ccccc1)c1cc[n+]([O-])cc1)C(c1ccccc1)c1ccccc1 (stereo not given)           -28
 3  O=C(NC(Cc1ccncc1)c1ccccc1)C(c1ccccc1)c1ccccc1 (stereo not given)           -52
 4  O=C(NC(Cc1ccccc1)c1cccc(O)c1)C(c1ccccc1)c1ccccc1 (stereo not given)           -19
 5  O=C(NC(Cc1ccc(O)cc1)c1ccccc1)C(c1ccccc1)c1ccccc1 (stereo not given)             0
 6  CS(=O)(=O)Nc1ccc(CC(NC(=O)C(c2ccccc2)c2ccccc2)c2ccccc2)cc1 (stereo not given)           -32
 7  O=C(NC(Cc1ccccc1)c1ccncc1)C(c1ccccc1)c1ccccc1 (stereo not given)           -29
 8  O=C(NC(Cc1ccc(O)cc1)c1ccc(O)cc1)C(c1ccccc1)c1ccccc1 (stereo not given)           -40
 9  CC(=O)Nc1ccc(CC(NC(=O)C(c2ccccc2)c2ccccc2)c2ccccc2)cc1 (stereo not given)             0
10  COc1cccc(C(Cc2ccccc2)NC(=O)C(c2ccccc2)c2ccccc2)c1 (stereo not given)             0
11  O=C(NC(Cn1ccnc1)c1ccccc1)C(c1ccccc1)c1ccccc1 (stereo not given)             0
12  COc1ccc(C(Cc2ccccc2)NC(=O)C(c2ccccc2)c2ccccc2)cc1 (stereo not given)           -69
13  COc1ccc(CC(NC(=O)C(c2ccccc2)c2ccccc2)c2ccc(OC)cc2)cc1 (stereo not given)           -32
14  Nc1ccc(CC(NC(=O)C(c2ccccc2)c2ccccc2)c2ccccc2)cc1 (single isomer, unassigned; (-))           -81
15  Nc1ccc(CC(NC(=O)C(c2ccccc2)c2ccccc2)c2ccccc2)cc1 (stereo in doubt; (+)-5)             0
16  C[Si](C)(C)CCOCn1ccnc1CC(NC(=O)C(c1ccccc1)c1ccccc1)c1ccccc1 (stereo not given)           -24
17  COc1ccc(CC(NC(=O)C(c2ccccc2)c2ccccc2)c2cccc(OC)c2)cc1 (stereo not given)             0
18  Nc1cccc(CC(NC(=O)C(c2ccccc2)c2ccccc2)c2ccccc2)c1 (stereo not given)           -31
19  Nc1ccc(C(Cc2ccccc2)NC(=O)C(c2ccccc2)c2ccccc2)cc1 (stereo not given)           -24

====

# targetEntity: Sterol O-acyltransferase 1 (Rattus norvegicus, UniProt O70536)
# Sequence (O70536 whole entry): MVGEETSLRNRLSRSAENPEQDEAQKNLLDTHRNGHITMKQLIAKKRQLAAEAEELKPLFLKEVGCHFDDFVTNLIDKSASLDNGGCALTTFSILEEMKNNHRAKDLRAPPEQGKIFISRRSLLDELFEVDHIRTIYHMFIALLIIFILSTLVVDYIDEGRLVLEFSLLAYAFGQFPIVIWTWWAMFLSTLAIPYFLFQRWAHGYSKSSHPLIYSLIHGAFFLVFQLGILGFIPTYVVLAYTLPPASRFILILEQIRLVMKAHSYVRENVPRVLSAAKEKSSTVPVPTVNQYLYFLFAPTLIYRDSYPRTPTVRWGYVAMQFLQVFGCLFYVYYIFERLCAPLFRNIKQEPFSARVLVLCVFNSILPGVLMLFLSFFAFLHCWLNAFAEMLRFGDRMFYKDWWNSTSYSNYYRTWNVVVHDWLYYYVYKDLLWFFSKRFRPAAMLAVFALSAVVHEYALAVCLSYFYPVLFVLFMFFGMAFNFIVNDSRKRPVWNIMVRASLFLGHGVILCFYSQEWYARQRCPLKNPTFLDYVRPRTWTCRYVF
experimentalEndpoint: IC50 (nM)

>>> print(df.to_string())
                                   molecule  experimentalendpoint  ltgteq  numericvalue
0  O=C(NC(Cc1ccccc1)c1ccc(O)cc1)C(c1ccccc1)c1ccccc1 (stereo not drawn)                  IC50       =          1000
1  CS(=O)(=O)Nc1ccc(CC(NC(=O)C(c2ccccc2)c2ccccc2)c2ccccc2)cc1 (stereo not drawn)                  IC50       =           360
2  COC(=O)c1ccc(CC(NC(=O)C(c2ccccc2)c2ccccc2)c2ccccc2)cc1 (stereo not drawn)                  IC50       >         10000
3  COc1ccc(CC(NC(=O)C(c2ccccc2)c2ccccc2)c2ccccc2)cc1OC (stereo not drawn)                  IC50       =           500
4  O=C(NC(Cc1ccc(O)cc1)c1ccccc1)C(c1ccccc1)c1ccccc1 (stereo not drawn)                  IC50       =           800
5  O=C(NC(Cc1ccccc1)c1cc[n+]([O-])cc1)C(c1ccccc1)c1ccccc1 (stereo not drawn)                  IC50       >         10000
6  CCCCCCCC/C=C\CCCCCCC(C)(C)C(=O)NC(Cc1ccc(N)cc1)c1ccccc1 (stereo not drawn)                  IC50       =           360
7  O=C(NC(Cc1ccncc1)c1ccccc1)C(c1ccccc1)c1ccccc1 (stereo not drawn)                  IC50       =          1800

====

# targetEntity: Sterol O-acyltransferase 1 (Rattus norvegicus, UniProt O70536)
# Sequence (O70536 whole entry): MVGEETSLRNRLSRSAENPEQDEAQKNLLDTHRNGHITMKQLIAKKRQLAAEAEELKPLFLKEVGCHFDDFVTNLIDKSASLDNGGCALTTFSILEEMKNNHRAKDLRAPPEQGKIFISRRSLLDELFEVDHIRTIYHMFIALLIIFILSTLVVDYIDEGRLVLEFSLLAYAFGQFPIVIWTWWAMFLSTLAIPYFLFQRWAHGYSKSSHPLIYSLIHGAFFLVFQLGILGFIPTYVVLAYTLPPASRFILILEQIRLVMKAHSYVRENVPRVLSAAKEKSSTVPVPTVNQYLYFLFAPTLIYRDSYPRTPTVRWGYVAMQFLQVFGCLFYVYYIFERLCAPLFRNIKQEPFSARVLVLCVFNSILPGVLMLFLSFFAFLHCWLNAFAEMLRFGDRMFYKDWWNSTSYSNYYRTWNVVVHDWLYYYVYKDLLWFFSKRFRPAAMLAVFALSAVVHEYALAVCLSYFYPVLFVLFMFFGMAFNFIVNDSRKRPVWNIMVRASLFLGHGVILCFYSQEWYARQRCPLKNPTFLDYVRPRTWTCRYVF
experimentalEndpoint: IC50 (µM)

>>> print(df.to_string())
                                   compound  experimentalendpoint  measureunit  ltgteq  numericvalue
0  COc1ccc(CC(NC(=O)C(c2ccccc2)c2ccccc2)c2ccccc2)cc1 (stereo not given)                  IC50           µM       =           1.6
1  CCCCCCCn1ccnc1CC(NC(=O)C(c1ccccc1)c1ccccc1)c1ccccc1 (stereo not given)                  IC50           µM       =             5
2  O=C(NC(Cc1ccccc1)c1cccnc1)C(c1ccccc1)c1ccccc1 (stereo not given)                  IC50           µM       =             4
3  O=C(NC(Cn1ccnc1)c1ccccc1)C(c1ccccc1)c1ccccc1 (stereo not given)                  IC50           µM       =           3.5
4  COc1ccccc1C(Cc1ccccc1)NC(=O)C(c1ccccc1)c1ccccc1 (stereo not given)                  IC50           µM       =           1.8
5  O=C(NC(Cc1ccccc1)c1ccncc1)C(c1ccccc1)c1ccccc1 (stereo not given)                  IC50           µM       =           2.3
6  C[Si](C)(C)CCOCn1ccnc1CC(NC(=O)C(c1ccccc1)c1ccccc1)c1ccccc1 (stereo not given)                  IC50           µM       =             5
7  O=C(O)c1ccc(CC(NC(=O)C(c2ccccc2)c2ccccc2)c2ccccc2)cc1 (stereo not given)                  IC50           µM       >            10
8  Nc1cccc(CC(NC(=O)C(c2ccccc2)c2ccccc2)c2ccccc2)c1 (stereo not given)                  IC50           µM       =             5
9  CCCCCCCCCC[Si](C)(C)CCC(=O)NC(Cc1ccc(C)cc1)c1ccccc1 (stereo not given)                  IC50           µM       =           0.3

All values here come from ChEMBL document CHEMBL1128352.
